meta.source: PubChem BioAssay AID1159580

- PROCEDURE DETAILS: chemical genetic growth profiling, strain panel (AID 1159580);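 further: tested at 20 µM; growth read once vehicle control cultures reached saturation at 30 °C; 1 = growth at the plate median or of vehicle wells; lower values mean less growth of the strain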
- CONDITION NOTES: S. cerevisiae deletion strains, growth OD, locus YLR262C, strain YPT6 (second series), stronger effect = lower value
Out of some 5,500 compounds screened, about 2,000 (36%) were called active. Not shown: some 18% with an inconclusive outcome. Some of the results follow.

# COMPOUND, normalized growth
measured = [
    ("C=C(C)[C@H]1Cc2c(ccc3c2O[C@@H]2COc4cc(OC)c(OC)cc4[C@@H]2C3=O)O1", 0.83),
    ("C=C(C)[C@@H]1CC[C@]2(CO)CC[C@]3(C)[C@H](CCC4[C@@]5(C)CC[C@H](O)C(C)(C)C5CC[C@]43C)C12 (stereo partly specified)", 1),
    ("COc1cc(O)cc(OC)c1OC", 0.992),
    ("O=C(O)c1cc(=O)c2c(Cl)cc(Cl)cc2[nH]1", 1.01),
    ("CCc1cccc2c3c([nH]c12)C(CC)(CC(=O)O)OCC3 (stereo unspecified)", 0.93),
    ("CC(=O)N[C@@H](Cc1c[nH]c2ccccc12)C(=O)O", 1.02),
    ("C[C@]12CCC(=O)C=C1CCC1C2C(=O)C[C@@]2(C)C1CC[C@]2(O)C(=O)CO (stereo partly specified)", 0.995),
    ("O=C(O)c1cc(=O)c2cccc(O)c2[nH]1", 1.01),
    ("C[C@]12CCC(=O)C=C1CCC1C2[C@@H](O)C[C@@]2(C)C1CC[C@]2(O)C(=O)COC(=O)CCC(=O)O (stereo partly specified)", 1.02),
    ("NCCc1c[nH]c2ccccc12", 0.956),
    ("CNC(Cc1c[nH]c2ccccc12)C(=O)O (stereo unspecified)", 1.01),
]
